Tested on: BT-549 breast
assayName: NCI tumour cell line growth inhibition, 48 h
Recorded measurements of GI50, one per entry
quantityKind: GI50

• CC(=O)OCCC/C(=C/c1cc2ccccc2c2ccccc12)[N+](=O)[O-] = 1.56 µM
• CN1CCC(n2cnc(-c3ccc(F)cc3)c2-c2ccnc(Nc3ccccc3)n2)CC1 = 10.4 µM
• O=C(Oc1c(Cl)c(Cl)c(Cl)c(Cl)c1Cl)C1CCCN1C(=O)OCc1ccccc1 (stereo not given) = 3.75 µM
• COc1ccc(-c2cncn2-c2ccc(-c3nc4cc(OC)c(OC)c(OC)c4s3)cc2)cc1N = 6.21 µM
• NCCNc1nc2ccc(F)cc2c2c(=O)c3cc(F)ccc3sc12 = 9.72 µM

====

Test system: CAKI-1 renal
assayName: NCI tumour cell line growth inhibition, 48 h
quantityKind: TGI

- O=C(CC(=O)c1cccc2ccccc12)C(=O)Nc1nccs1: > 100 µM
- C#CCOCn1cnc2c(N)ncnc21: > 100 µM
- CCCCCCCCCCCc1cc(=O)c2c(O)cccc2o1: > 100 µM
- CCC1=C(CC2NCCc3cc(OC)c(OC)cc32)CC2c3ccccc3CCN2C1 (configuration not stated): > 100 µM
- Cn1c(=O)c2[nH]c(CCS)nc2n(C)c1=O: > 100 µM
- NC(=S)NN=C1Cc2ccccc2C1: > 100 µM
- CC(C)C(=O)/C=C/c1ccc(Cl)cc1Cl: 24.8 µM
- CCCCCCCCCCCCCCCCCCOC(COP(=O)(O)OCC1OC(n2cc(F)c(=O)[nH]c2=O)CC1O)COP(=O)(O)OCC1OC(n2ccc(N)nc2=O)C(O)C1O (configuration not stated): > 100 µM
- O=CCC(O)C(O)C(O)CO (configuration not stated): > 100 µM
- O=C(O)c1ccccc1C(=O)Nc1cc2c(cc1Br)-c1ccccc1C2=O: > 100 µM
- Oc1c(O)c(Cc2ccccc2)c(Cc2ccccc2)c(Cc2ccccc2)c1Cc1ccccc1: > 10 µM
- Cc1ccc([N+](=O)[O-])cc1S(=O)(=O)Nc1ccc(C2=NN(C(=O)c3ccccc3)C(c3ccccc3O)C2)cc1 (configuration not stated): 91.9 µM
- O=C(/C=C/c1cc(O)ccc1O)c1ccc(Cl)cc1: > 100 µM
- CN(C)c1ccc(C2=C([O-])c3cc(-[n+]4ccccc4)ccc3C2=O)cc1: > 100 µM
- COc1cc2ccnc(-c3n[nH]c4cc(OC)c(OC)cc34)c2cc1OC: > 100 µM
- CC1(C)CC(C(=O)OCCCCCCCCCCC[P+](c2ccccc2)(c2ccccc2)c2ccccc2)C(C)(C)N1O (configuration not stated): 2.32 µM
- CCC1=NC(N/N=C/c2ccco2)=N/C1=C\c1ccco1: > 100 µM
- CNc1ccc(Cl)cc1C(=O)N1CCC[C@H]1CO: > 100 µM
- COc1ccc(N2C(=O)C3c4[nH]c5ccc(OC)cc5c4C4CCC(c5ccccc5)CC4C3C2=O)cc1 (configuration not stated): 40.6 µM
- COc1ccc(-n2nnc3c(C#N)c(C)c(-c4ccccc4)n3c2=O)cc1: > 100 µM
- Oc1ccc(Cl)cc1C1=Nn2c(COc3ccc4c(c3)CCCC4)nnc2SC1: 49.6 µM
- CCSc1nc(N)c(C#N)c(-c2ccc(OC)c(OC)c2)c1C#N: > 50 µM
